Data origin, for the record: ChEMBL document CHEMBL4373692

Reported values of pKi for individual entries
procedure_details: Inhibition of bacterial N-terminal His-tagged TEV protease site linked NDM-1 (1 to 270 amino acids) expressed in Escherichia coli Transetta (DE3) preincubated for 10 mins followed by FC5 fluorescent substrate addition by fluorescence assay
Set-up: species or system Bacteria
In simple prose, pKi is minus the logarithm base ten of a concentration in moles per litre.

Below, each entry is followed by its recorded pKi result.
molecule: CC(C)C[C@H](NC(=O)[C@H](C)CS)B(O)O
recorded_endpoint: pKi
measurement: 4.64

molecule: C[C@H](CS)C(=O)N[C@@H](Cc1coc2ccccc12)B(O)O
recorded_endpoint: pKi
measurement: 4.42

molecule: C[C@H](CS)C(=O)N[C@@H](Cc1ccc(F)cc1)B(O)O
recorded_endpoint: pKi
measurement: 4.64

Input line: Give the measured pKi of "Cc1ccc([C@@H](NC(=O)[C@H](C)CS)B(O)O)cc1" .
Output line: 4.80

---

Test system: Escherichia coli
procedure_details: Inhibition of beta lactamase NDM1 in Escherichia coli BAA-2452 assessed as potentiation of meropenem-induced antibacterial activity by measuring meropenem MIC at 50 uM after 16 to 20 hrs by broth microdilution assay (reference value: 32 ug/ml)
recorded_endpoint: MIC
Units required after the number.

molecule: C[C@H](CS)C(=O)N[C@H](Cc1ccccc1)B(O)O
MIC: 32 µg/mL
//
molecule: C[C@H](CS)C(=O)N[C@@H](Cc1coc2ccccc12)B(O)O
MIC: 32 µg/mL
//
molecule: C[C@H](CS)C(=O)N[C@@H](Cc1ccccc1)B(O)O
MIC: 16 µg/mL
//
molecule: C[C@H](CS)C(=O)N[C@H](Cc1coc2ccccc12)B(O)O
MIC: 16 µg/mL
//
molecule: C[C@]1(Cn2ccnn2)[C@H](C(=O)O)N2C(=O)C[C@H]2S1(=O)=O
MIC: 16 µg/mL
//
molecule: C[C@H](CS)C(=O)N1CCC[C@H]1C(=O)O
MIC: 8 µg/mL

Please look at the following compound next.
Input line: What measured MIC is associated with "C[C@H](CS)C(=O)NCB(O)O" on Escherichia coli?
Output line: 16 µg/mL

---

study_system: Class A carbapenemase KPC-2 (Escherichia coli)
test_conditions: BAA-2340
Reported values of MIC for individual entries
Only the number, expressed in µg/mL, is required.

Below, each entry is followed by its recorded MIC result.
molecule: C[C@H](CS)C(=O)NCB(O)O
study_system: Class A carbapenemase KPC-2 (Escherichia coli)
measurement: 0.5

molecule: C[C@H](CS)C(=O)N[C@H](Cc1ccccc1)B(O)O
study_system: Class A carbapenemase KPC-2 (Escherichia coli)
measurement: 2

molecule: C[C@H](CS)C(=O)N[C@@H](Cc1ccccc1)B(O)O
study_system: Class A carbapenemase KPC-2 (Escherichia coli)
measurement: 2

molecule: C[C@]1(Cn2ccnn2)[C@H](C(=O)O)N2C(=O)C[C@H]2S1(=O)=O
study_system: Class A carbapenemase KPC-2 (Escherichia coli)
measurement: 2

molecule: C[C@H](CS)C(=O)N[C@@H](Cc1coc2ccccc12)B(O)O
study_system: Class A carbapenemase KPC-2 (Escherichia coli)
measurement: 1

Please look at the following compound next.
Input line: Give the measured MIC of "C[C@H](CS)C(=O)N[C@H](Cc1coc2ccccc12)B(O)O" .
Output line: 2

---

procedure_details: Inhibition of bacterial N-terminal His-tagged TEV protease site linked SFH1 (3 to 234 amino acids) expressed in Escherichia coli Transetta (DE3) preincubated for 10 mins followed by FC5 fluorescent substrate addition by fluorescence assay
Design: species or system Bacteria
pKi: −log10 of the molar value.
Heads up, the class ranges for pKi are interval 1 (below 5), interval 2 (5 to below 6), interval 3 (6 or more)

molecule: CCC(=O)NCB(O)O
assigned_category: interval 1

molecule: C[C@H](CS)C(=O)N[C@@H](Cc1ccc(F)cc1)B(O)O
assigned_category: interval 3

molecule: O=C(CS)N[C@@H](Cc1ccccc1)B(O)O
assigned_category: interval 3

molecule: CCC(=O)N[C@@H](Cc1ccccc1)B(O)O
assigned_category: interval 1

molecule: C[C@H](CS)C(=O)N[C@@H](B(O)O)c1ccccc1
assigned_category: interval 2

Input line: Categorize the following entry: "CC(C)[C@@H](NC(=O)[C@H](C)CS)B(O)O"
Output line: interval 1

Input line: Categorize the following entry: "O=C(N[C@@H](Cc1ccccc1)B(O)O)[C@@H](CS)NCc1ccccc1"
Output line: interval 2

Input line: Categorize the following entry: "Cc1ccc([C@@H](NC(=O)[C@H](C)CS)B(O)O)cc1"
Output line: interval 3

---

procedure_details: Inhibition of bacterial N-terminal His-tagged TEV protease site linked SFH1 (3 to 234 amino acids) expressed in Escherichia coli Transetta (DE3) preincubated for 10 mins followed by FC5 fluorescent substrate addition by fluorescence assay
Parameters: species or system Bacteria
pKi: −log10 of the molar value.
Label yes (1) for high-side pKi (at or above 6) and no (0) for low-side pKi (below it).

molecule: C[C@H](CS)C(=O)N[C@@H](B(O)O)c1ccc2ccccc2c1
assigned_category: no (0)

Input line: Could you verify whether the entry "C[C@H](CS)C(=O)N[C@H](B(O)O)c1ccc(F)cc1" shows pKi of no less than 6?
Output line: yes (1)

Input line: Could you verify whether the entry "C[C@H](CS)C(=O)N[C@H](B(O)O)c1ccc2ccccc2c1" shows pKi of no less than 6?
Output line: no (0)

Input line: Could you verify whether the entry "C[C@H](CS)C(=O)N[C@@H](Cc1coc2ccccc12)B(O)O" shows pKi of no less than 6?
Output line: yes (1)

Input line: Could you verify whether the entry "Cc1ccc([C@H](NC(=O)[C@H](C)CS)B(O)O)cc1" shows pKi of no less than 6?
Output line: yes (1)

---

procedure_details: Inhibition of bacterial N-terminal His-tagged TEV protease site linked NDM-1 (1 to 270 amino acids) expressed in Escherichia coli Transetta (DE3) preincubated for 10 mins followed by FC5 fluorescent substrate addition by fluorescence assay
Design: species or system Bacteria
Reported values of pKi for individual entries
In simple prose, pKi is minus the logarithm base ten of a concentration in moles per litre.

Below, each entry is followed by its recorded pKi result.
compound: C[C@H](CS)C(=O)N[C@H](Cc1ccc(F)cc1)B(O)O
pKi: 4.76
--
compound: C[C@H](CS)C(=O)NCB(O)O
pKi: 4.17
--
compound: Cc1ccc([C@H](NC(=O)[C@H](C)CS)B(O)O)cc1
pKi: 4.78
--
compound: C[C@H](CS)C(=O)N1CCC[C@H]1C(=O)O
pKi: 5.26
--
compound: C[C@H](CS)C(=O)N[C@H](Cc1ccccc1)B(O)O
pKi: 4.77

Input line: Give the measured pKi of "CC(C)C[C@@H](NC(=O)[C@H](C)CS)B(O)O" .
Output line: 4.42

Input line: Give the measured pKi of "C[C@H](CS)C(=O)N[C@@H](B(O)O)c1ccccc1" .
Output line: 4.33

Input line: Give the measured pKi of "COc1ccc(C[C@H](NC(=O)[C@H](C)CS)B(O)O)cc1" .
Output line: 4.57

Input line: Give the measured pKi of "O=C(CS)N[C@H](Cc1coc2ccccc12)B(O)O" .
Output line: 4.99

Input line: Give the measured pKi of "CC(C)[C@H](NC(=O)[C@H](C)CS)B(O)O" .
Output line: 4.43

Input line: Give the measured pKi of "O=C(N[C@@H](Cc1ccccc1)B(O)O)[C@@H](CS)NCc1ccccc1" .
Output line: 4.83

---

procedure_details: Inhibition of bacterial N-terminal His-tagged TEV protease site linked AmpC (20 to 377 amino acids) expressed in Escherichia coli Transetta (DE3) preincubated for 10 mins followed by FC5 fluorescent substrate addition by fluorescence assay
Set-up: species or system Bacteria
Reported values of pKi for individual entries
In simple prose, pKi is minus the logarithm base ten of a concentration in moles per litre.

molecule: C[C@H](CS)C(=O)N[C@H](B(O)O)c1ccc2ccccc2c1
recorded_endpoint: pKi
measurement: 4.70
//
molecule: C[C@]1(Cn2ccnn2)[C@H](C(=O)O)N2C(=O)C[C@H]2S1(=O)=O
recorded_endpoint: pKi
measurement: 4.73
//
molecule: C[C@H](CS)C(=O)N[C@@H](Cc1ccc(F)cc1)B(O)O
recorded_endpoint: pKi
measurement: 6.11

Input line: Give the measured pKi of "C[C@H](CS)C(=O)N[C@@H](Cc1ccccc1)B(O)O" .
Output line: 5.10

Input line: Give the measured pKi of "COc1ccc(C[C@H](NC(=O)[C@H](C)CS)B(O)O)cc1" .
Output line: 5.91

Input line: Give the measured pKi of "C[C@H](CS)C(=O)N[C@@H](Cc1coc2ccccc12)B(O)O" .
Output line: 6.96

Input line: Give the measured pKi of "O=C(N[C@@H](Cc1ccccc1)B(O)O)[C@@H](CS)NCc1ccccc1" .
Output line: 4.94

Input line: Give the measured pKi of "CCC(=O)NCB(O)O" .
Output line: 3.54

Input line: Give the measured pKi of "Cc1ccc([C@H](NC(=O)[C@H](C)CS)B(O)O)cc1" .
Output line: 5.70
